Test system: HOP-92
Assay: NCI tumour cell line growth inhibition, 48 h
The source made the active and inactive calls. Rule as the data show it: active = GI50 up to about 1.1 µM and inactive = higher.
Known GI50 of a selection of molecules

- MOLECULE: "CCc1ccc(CCC(=O)O)nc1"
  OBSERVED_MEASUREMENT: "> 100 µM (inactive)"
- MOLECULE: "CC1=N/C(=C\\c2ccc(N)cc2)C(=O)N1Nc1nnc(NN2C(=O)/C(=C/c3ccc(N)cc3)N=C2C)c2ccccc12"
  OBSERVED_MEASUREMENT: "> 100 µM (inactive)"
- MOLECULE: "CC1(C=O)C(=O)CCC2(C)C3CC(=O)OC3CCC12 (stereo not given)"
  OBSERVED_MEASUREMENT: "> 100 µM (inactive)"
- MOLECULE: "Cn1cnc2c(NCc3ccccc3)nc(NCCO)nc21"
  OBSERVED_MEASUREMENT: "61.2 µM (inactive)"

Switching to the query record.
## Input State its GI50 for this molecule: "N=C(N)SCc1ccc(N=C=S)cc1"
## Output 11.7 µM (inactive)

----------
Tested on: U-251
Test: NCI tumour cell line growth inhibition, 48 h
Active and inactive are the calls of the source. No stated cut-off is given here; in the data, active = GI50 up to about 1.1 µM and inactive = higher.
QUANTITY_MEASURED: GI50

- COMPOUND: "CCc1ccc(CCC(=O)O)nc1"
  GI50: "> 100 µM (inactive)"
- COMPOUND: "CC1=Nc2c(N)nc(N)nc2N(C)C1"
  GI50: "> 100 µM (inactive)"
- COMPOUND: "Cc1cccc(C(C)(C)C)c1NC(=O)C(=O)C(c1cnc2ccccc2n1)[N+](=O)[O-] (stereo not given)"
  GI50: "> 100 µM (inactive)"
- COMPOUND: "CCNc1nnc(-c2ccccc2Nc2ccccc2-c2nnc(NCC)s2)s1"
  GI50: "11.4 µM (inactive)"
- COMPOUND: "Cn1cccc(C(=O)c2ccccc2)c1=O"
  GI50: "> 100 µM (inactive)"
- COMPOUND: "COC(=O)c1ccc(CCC2=CC(=O)C=CC2=O)cc1"
  GI50: "11.2 µM (inactive)"

## Input Retrieve GI50 on U-251; query "N#CC(C#N)=Cc1ccc(C=C2SC3=C(SCCS3)S2)s1"
## Output 12.4 µM (inactive)

## Input Retrieve GI50 on U-251; query "CCCCOc1c(C(=O)O)cc(Br)cc1C(=O)O"
## Output > 100 µM (inactive)

## Input Retrieve GI50 on U-251; query "O=S(=O)(O)c1cccc2cccc(/N=N/c3c(O)ccc4ccccc34)c12"
## Output > 100 µM (inactive)

## Input Retrieve GI50 on U-251; query "N=C(N)SCc1ccc(N=C=S)cc1"
## Output 15.2 µM (inactive)

## Input Retrieve GI50 on U-251; query "Cc1c(/C=N/NC(=O)c2ccc(Cl)cc2)c(=O)n(-c2ccccc2)n1C"
## Output > 100 µM (inactive)

## Input Retrieve GI50 on U-251; query [N-]=[N+]=NC1OC(=O)C(Cl)=C1N=P(c1ccccc1)(c1ccccc1)c1ccccc1 (stereo not given)
## Output > 10 µM (inactive)

## Input Retrieve GI50 on U-251; query "O=C1CCC(=O)C1=NNc1ccccc1"
## Output > 100 µM (inactive)

## Input Retrieve GI50 on U-251; query COc1cc(C2SC(C)C(=O)N2c2ccc(-c3csc(NS(=O)(=O)c4ccc(Cl)c(OC)c4)n3)cc2)ccc1O (stereo not given)
## Output 46.5 µM (inactive)

## Input Retrieve GI50 on U-251; query "Cn1cnc2c(NCc3ccccc3)nc(NCCO)nc21"
## Output 64.4 µM (inactive)

// provenance: ChEMBL document CHEMBL1201862
